Reference for the values: PubChem BioAssay AID608

- test-system: Peptidyl-prolyl cis-trans isomerase FKBP1A (Homo sapiens) (UniProt P62942)
- Sequence (P62942 whole entry, looked up): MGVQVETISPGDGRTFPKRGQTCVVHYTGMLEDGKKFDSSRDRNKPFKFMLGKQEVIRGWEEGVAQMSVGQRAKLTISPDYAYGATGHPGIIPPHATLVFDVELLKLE
- procedure-summary: small-molecule binding to FKBP12 – biophysical, NMR detection (AID 608)
- test-parameters: purified FKBP12
Calls of active or inactive are those of the source. The rule behind the calls is not given here.

| compound | Kd |
| --- | --- |
| Nc1oncc1-c1ccccn1 | > 4 mM (inactive) |
| Cc1nc2nc(-c3ccco3)nn2c(C)c1Cl | > 4 mM (inactive) |
| Cc1ccc(SC(C)c2nc(-c3ccncc3)no2)cc1 (stereo not drawn) | inactive |
| CC(C)=CCCC1(C)C=Cc2c(O)c3c(c(CC=C(C)C)c2O1)OC12C(=CCCC1C(C)(C)O[C@@]2(C/C=C(\C)C(=O)O)C(=O)O)C3=O (stereo partly drawn) | > 4 mM (inactive) |
| COc1c2c(cc3cc[n+](C)cc13)OCO2 | > 4 mM (inactive) |
| CN1CCN(C(=O)C2CCCNC2)CC1 (stereo not drawn) | > 4 mM (inactive) |
| CCc1ccccc1NC(=O)c1ccoc1C | > 4 mM (inactive) |
| CC1CN(Cc2ccccn2)CCC1=O (stereo not drawn) | > 4 mM (inactive) |
| CC(=O)c1c(O)n(C)c(=S)n(C)c1=O | > 4 mM (inactive) |
| O=C(Nc1cccnc1)N1CCOCC1 | > 4 mM (inactive) |
| Nc1nnc(Cc2ccc(Cl)cc2)s1 | > 4 mM (inactive) |
| COC(=O)Cc1csc(N)n1 | > 4 mM (inactive) |
| O=c1cc(-c2ccccc2)oc2c(O)c(O)ccc12 | > 4 mM (inactive) |
| O=C(CN1C(=O)CCC1=O)c1ccccc1 | > 4 mM (inactive) |
| O=C(O)CCC(=O)NCc1cccnc1 | > 4 mM (inactive) |
| Nc1cc(F)ccc1-n1ccnc1 | > 4 mM (inactive) |
| OCc1ccc(-n2cccn2)cc1 | > 4 mM (inactive) |
| Nc1cccc(C(=O)Nc2ccc(N)cc2Cl)c1 | > 4 mM (inactive) |
| Nc1nc2n(c1C(=O)c1ccccc1)CCC2 | > 4 mM (inactive) |
| CC(=O)Nc1ccc(NC(=O)/C=C\C(=O)O)cc1 | > 4 mM (inactive) |
| c1ccc(-c2csc3ncn4nnnc4c23)cc1 | > 4 mM (inactive) |
| CCn1ccc(C(=O)Nc2nccs2)n1 | > 4 mM (inactive) |
| C[C@@H]1CCC2[C@](C)(CO)[C@@H](O)CC[C@]2(C)[C@@]12CC[C@@](CO)(CCO)O2 (stereo partly drawn) | > 4 mM (inactive) |
| N=C1/C(=C\c2ccco2)C(=O)N=C2SC=NN12 | > 4 mM (inactive) |
| O=C(O)[C@H](O)[C@@](O)(Cc1ccc(O)cc1)C(=O)O | > 4 mM (inactive) |
| COc1ncccc1N | > 4 mM (inactive) |
| Brc1ccccc1Cn1c(-c2cscn2)nc2ccccc21 | inactive |
| O=C(Cc1cccs1)N1CCOCC1 | > 4 mM (inactive) |
